Data origin: the METLIN SMRT retention time set (Domingo-Almenara et al. 2019)

- ASSAY_PROTOCOL: gradient 5% acetonitrile 3 min, to 50% in 2 min, to 85% in 15 min, held 3 min, 100 µL/min
- STUDY_CONDITIONS: column: Zorbax Extend-C18 2.1 x 50 mm; eluents: water / acetonitrile, 0.1% formic acid
OUTCOME_MEASURE: RP-LC retention time (s)

Sample records with RP-LC retention time:
COMPOUND	UNITS_OF_MEASURE	REPORTED
CCCNC(=O)C1CCN(c2ccc(SCC(=O)Nc3ccccc3C(=O)OC)nn2)CC1	s	666
COCC(=O)N(CC(=O)N1CCc2sccc2C1COc1ccc(C)cc1C)CC1CC1 (stereo unspecified)	s	982

a = Cc1ccc(C)c(C(=O)Nc2ccc3c(c2)Sc2ncccc2C(=O)N3C)c1
b = Cc1ccc(S(=O)(=O)N2CCCN(C)c3ccccc32)cc1C
Return label of the item with the larger RP-LC retention time. Candidates: a , b . Reply with the label of the item you choose.
a
(a: 888 s, b: 603 s)
